Catalogue of molecules with associated inhibition
target: Tyrosine-protein kinase Yes (Homo sapiens) (UniProt P07947);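 note: mean inhibition of YES, from the GSK PKIS dataset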
Sequence (P07947 2-543 limits assumed): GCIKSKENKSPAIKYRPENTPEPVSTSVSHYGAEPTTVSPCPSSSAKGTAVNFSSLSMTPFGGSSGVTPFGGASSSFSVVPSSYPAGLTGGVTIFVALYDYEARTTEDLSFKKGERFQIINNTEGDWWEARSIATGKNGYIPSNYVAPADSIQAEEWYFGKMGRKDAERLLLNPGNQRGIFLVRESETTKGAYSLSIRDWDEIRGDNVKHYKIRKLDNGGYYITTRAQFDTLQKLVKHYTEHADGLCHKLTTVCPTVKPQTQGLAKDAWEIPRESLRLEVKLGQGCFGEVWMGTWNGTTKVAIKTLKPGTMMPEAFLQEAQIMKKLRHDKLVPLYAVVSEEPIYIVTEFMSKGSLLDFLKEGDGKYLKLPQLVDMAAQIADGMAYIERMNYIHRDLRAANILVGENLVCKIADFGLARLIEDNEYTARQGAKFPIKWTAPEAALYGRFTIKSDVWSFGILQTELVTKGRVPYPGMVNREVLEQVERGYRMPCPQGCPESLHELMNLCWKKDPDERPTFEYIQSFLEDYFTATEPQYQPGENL
run.conditions: at 0.1 µM
API: value field is a number in %; no unit string.

Short answer for `O=C(Nc1n[nH]c2nnc(-c3cccnc3)cc12)C1CC1` : inhibition was 1.69

Short answer for `CNC(=O)c1ncccc1Nc1nc(Nc2cc3c(cc2OC)CCCN3C(=O)CN(C)C)nc2[nH]ccc12` : inhibition was 0.73

Short answer for `NS(=O)(=O)c1ccc(N/N=C2\C(=O)Nc3ccc(C(=O)NCc4ccncc4)cc32)cc1` : inhibition was 4.07

Short answer for `CCn1c(-c2nonc2N)nc2cncc(C(=O)NCCNC)c21` : inhibition was 2.4

As a next step, examine the molecule that follows.
Short answer for `N#Cc1ccc2c(-c3ccnc(NC4CC4)n3)c(-c3ccc(F)cc3)nn2c1` : inhibition was 2.22

###

target: Mitogen-activated protein kinase 1 (Homo sapiens) (UniProt P28482);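 note: reported figure is an averaged percent inhibition of the kinase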
Sequence (P28482 whole entry): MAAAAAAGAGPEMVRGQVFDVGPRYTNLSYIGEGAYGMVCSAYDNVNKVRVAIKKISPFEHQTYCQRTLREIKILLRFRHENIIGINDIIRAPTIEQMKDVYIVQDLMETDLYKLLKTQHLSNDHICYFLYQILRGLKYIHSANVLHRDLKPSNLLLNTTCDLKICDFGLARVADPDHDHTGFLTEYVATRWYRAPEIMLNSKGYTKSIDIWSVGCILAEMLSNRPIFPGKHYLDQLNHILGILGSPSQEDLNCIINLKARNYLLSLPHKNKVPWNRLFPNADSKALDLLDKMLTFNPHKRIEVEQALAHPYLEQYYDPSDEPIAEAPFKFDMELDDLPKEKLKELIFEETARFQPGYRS
run.conditions: at 0.1 µM
Catalogue of molecules with associated inhibition
API: value field is a number in %; no unit string.

See these solved cases before continuing.
Short answer for `CS(=O)(=O)Nc1ccc(-c2ccc3c(NC(=O)C4CC4)n[nH]c3c2)cc1` : inhibition was 4.95

Short answer for `COc1cccc(Nc2nccc(-c3cnn4ncccc34)n2)c1` : inhibition was 2.75

Short answer for `CN(c1ccc(NC(=O)NCCN2CCOCC2)cc1)c1ccnc(Nc2ccc(CS(C)(=O)=O)cc2)n1` : inhibition was 5.07

---
Short answer for `Cn1c(-c2nonc2N)nc2cnccc21` : inhibition was -1.97

Short answer for `CCOc1ccc2c(-c3ccnc(Nc4cc(OC)cc(C(F)(F)F)c4)n3)cnn2n1` : inhibition was 0.19

Short answer for `O=C1Nc2ccccc2/C1=C1\CCc2cc(O)ccc21` : inhibition was 5.77

###

target: Platelet-derived growth factor receptor alpha (Homo sapiens) (UniProt P16234)
Sequence (P16234 whole entry): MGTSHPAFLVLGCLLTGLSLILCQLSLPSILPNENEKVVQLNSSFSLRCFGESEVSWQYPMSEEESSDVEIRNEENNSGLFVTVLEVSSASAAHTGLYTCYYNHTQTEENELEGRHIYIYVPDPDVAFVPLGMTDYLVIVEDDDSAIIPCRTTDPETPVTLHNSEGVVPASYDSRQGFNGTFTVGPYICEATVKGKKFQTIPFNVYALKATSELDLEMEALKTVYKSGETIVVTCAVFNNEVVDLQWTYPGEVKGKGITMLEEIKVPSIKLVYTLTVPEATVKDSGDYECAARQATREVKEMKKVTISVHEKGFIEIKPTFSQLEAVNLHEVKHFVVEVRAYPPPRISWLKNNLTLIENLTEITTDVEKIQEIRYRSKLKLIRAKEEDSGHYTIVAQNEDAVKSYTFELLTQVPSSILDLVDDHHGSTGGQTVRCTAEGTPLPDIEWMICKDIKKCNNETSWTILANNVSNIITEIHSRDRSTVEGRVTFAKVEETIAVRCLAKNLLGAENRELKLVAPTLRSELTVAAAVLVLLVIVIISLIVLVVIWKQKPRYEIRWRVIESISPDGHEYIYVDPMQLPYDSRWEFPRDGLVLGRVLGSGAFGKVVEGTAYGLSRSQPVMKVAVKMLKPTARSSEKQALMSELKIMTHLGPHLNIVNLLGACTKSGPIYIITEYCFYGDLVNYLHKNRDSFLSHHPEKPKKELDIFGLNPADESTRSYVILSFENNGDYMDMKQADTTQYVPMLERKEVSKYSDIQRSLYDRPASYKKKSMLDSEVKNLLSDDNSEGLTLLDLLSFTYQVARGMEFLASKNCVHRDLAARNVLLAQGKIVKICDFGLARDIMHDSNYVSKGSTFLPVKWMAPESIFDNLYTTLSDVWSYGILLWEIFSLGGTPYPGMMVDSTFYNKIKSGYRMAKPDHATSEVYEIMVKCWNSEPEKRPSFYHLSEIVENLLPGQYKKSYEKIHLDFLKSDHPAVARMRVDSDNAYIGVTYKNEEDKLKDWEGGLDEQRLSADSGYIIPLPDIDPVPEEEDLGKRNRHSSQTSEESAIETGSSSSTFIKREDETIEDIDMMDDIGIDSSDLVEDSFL
run.conditions: at 0.1 µM
Description: GSK_PKIS: PDGFRA mean inhibition at 0.1 uM [Nanosyn]
value.kind: inhibition (%)
API: value field is a number in %; no unit string.

Short answer for `Cn1c(-c2nonc2N)nc2cnccc21` : inhibition was 2.63

Short answer for `CCOc1ccc2c(-c3ccnc(Nc4cc(OC)cc(C(F)(F)F)c4)n3)cnn2n1` : inhibition was 6.45

---
Short answer for `CNC(=O)c1ncccc1Nc1nc(Nc2cc3c(cc2OC)CCCN3C(=O)CN(C)C)nc2[nH]ccc12` : inhibition was 10.7

Short answer for `c1cnn2ncc(-c3ccnc(NCCCN4CCOCC4)n3)c2c1` : inhibition was 5.5

###

target: Macrophage-stimulating protein receptor (Homo sapiens) (UniProt Q04912)
Sequence (Q04912 25-304 limits assumed): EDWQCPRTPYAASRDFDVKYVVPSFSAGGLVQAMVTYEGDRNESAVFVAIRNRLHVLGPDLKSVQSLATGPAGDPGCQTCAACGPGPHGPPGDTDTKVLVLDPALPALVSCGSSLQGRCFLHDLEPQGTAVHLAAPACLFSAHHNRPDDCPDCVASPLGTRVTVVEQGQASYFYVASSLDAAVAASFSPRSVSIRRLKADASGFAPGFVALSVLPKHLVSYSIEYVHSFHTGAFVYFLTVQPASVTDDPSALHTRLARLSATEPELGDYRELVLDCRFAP
Sequence (Q04912 310-1400 limits assumed): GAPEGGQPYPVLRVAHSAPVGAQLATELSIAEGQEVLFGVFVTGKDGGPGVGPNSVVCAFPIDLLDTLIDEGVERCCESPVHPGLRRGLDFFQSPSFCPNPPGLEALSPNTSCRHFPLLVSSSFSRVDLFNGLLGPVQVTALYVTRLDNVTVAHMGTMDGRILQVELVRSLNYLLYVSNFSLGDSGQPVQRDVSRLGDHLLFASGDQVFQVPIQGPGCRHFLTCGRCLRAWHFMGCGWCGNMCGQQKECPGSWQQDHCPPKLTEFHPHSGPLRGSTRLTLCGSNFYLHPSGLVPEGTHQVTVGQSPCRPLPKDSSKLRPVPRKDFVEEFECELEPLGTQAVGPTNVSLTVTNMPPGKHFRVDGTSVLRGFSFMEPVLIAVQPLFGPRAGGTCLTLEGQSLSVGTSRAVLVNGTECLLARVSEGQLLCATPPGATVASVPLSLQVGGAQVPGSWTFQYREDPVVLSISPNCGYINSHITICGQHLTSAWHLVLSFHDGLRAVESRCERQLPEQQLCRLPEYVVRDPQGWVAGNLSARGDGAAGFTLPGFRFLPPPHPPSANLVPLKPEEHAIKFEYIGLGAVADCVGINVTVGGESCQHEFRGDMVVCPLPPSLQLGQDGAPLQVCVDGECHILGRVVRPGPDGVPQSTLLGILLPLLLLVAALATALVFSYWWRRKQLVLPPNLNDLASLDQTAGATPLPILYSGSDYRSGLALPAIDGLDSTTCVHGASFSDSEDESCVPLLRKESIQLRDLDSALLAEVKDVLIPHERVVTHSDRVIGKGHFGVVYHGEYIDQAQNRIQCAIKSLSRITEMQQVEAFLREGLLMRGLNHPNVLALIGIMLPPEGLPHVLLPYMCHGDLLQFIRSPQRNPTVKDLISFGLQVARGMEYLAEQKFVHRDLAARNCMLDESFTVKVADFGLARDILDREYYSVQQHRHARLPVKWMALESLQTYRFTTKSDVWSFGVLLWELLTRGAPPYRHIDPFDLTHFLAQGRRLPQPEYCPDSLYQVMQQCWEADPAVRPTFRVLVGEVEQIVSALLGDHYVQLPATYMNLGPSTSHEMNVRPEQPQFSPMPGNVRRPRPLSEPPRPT
run.conditions: at 1 µM
Description: GSK_PKIS: RON mean inhibition at 1 uM [Nanosyn]
value.kind: inhibition (%)
API: value field is a number in %; no unit string.

See these solved cases before continuing.
Short answer for `CCS(=O)(=O)c1ccc(OC)c(Nc2ncc(-c3cccc(F)c3)o2)c1` : inhibition was 6.8

Short answer for `CN(c1ccc(NC(=O)NCCN2CCOCC2)cc1)c1ccnc(Nc2ccc(CS(C)(=O)=O)cc2)n1` : inhibition was 15.6

Short answer for `Cc1ccc(-c2cc3c(NC(=O)C4CC4)ncnc3o2)cc1` : inhibition was 11.4

Short answer for `CCN1CCC(C(=O)Nc2n[nH]c3nnc(-c4cccc(F)c4F)cc23)CC1` : inhibition was 0.25

As a next step, examine the molecule that follows.
Short answer for `Cn1c(-c2nonc2N)nc2cnccc21` : inhibition was -0.92

###

Catalogue of molecules with associated inhibition
target: Hepatocyte growth factor receptor (Homo sapiens) (UniProt P08581);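 note: each value is an averaged inhibition figure for MET, taken as the mean across measurements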
run.conditions: at 1 µM
API: value field is a number in %; no unit string.

See these solved cases before continuing.
Short answer for `CC(C)c1ccc(-c2cc(-c3c[nH]nc3-c3ccccn3)ccn2)cc1` : inhibition was 3.3

Short answer for `Cc1cc(O)cc(C)c1/C=C/c1cncc(C(N)=O)c1` : inhibition was 6.76

Short answer for `N#Cc1ccc2c(-c3ccnc(NC4CC4)n3)c(-c3ccc(F)cc3)nn2c1` : inhibition was 3.65

---
Short answer for `COc1ccc(-c2nn3ncccc3c2-c2ccnc(Nc3ccc(F)c(F)c3)n2)cc1` : inhibition was 8.73

Short answer for `CC1(C)CC(n2cnc(-c3ccc(F)cc3)c2-c2ccnc(N)n2)CC(C)(C)N1` : inhibition was 5.56

Short answer for `CCn1c(-c2nonc2N)nc2cncc(C(=O)NCCNC)c21` : inhibition was 4.45

Short answer for `O=C(O[C@H]1CN[C@H](C#Cc2cc3ncnc(Nc4ccc(OCc5cccc(F)c5)c(Cl)c4)c3s2)C1)N1CCOCC1` : inhibition was 7.49

Short answer for `COc1cc(N2CCN(C(C)C)CC2)ccc1Nc1nc(Nc2cccc3ncccc23)c2cc[nH]c2n1` : inhibition was -1.9

Short answer for `CS(=O)(=O)Nc1ccc(-c2ccc3c(NC(=O)C4CC4)n[nH]c3c2)cc1` : inhibition was -3.22

###

target: Tyrosine-protein kinase Fgr (Homo sapiens) (UniProt P09769);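 note: value reported as mean kinase inhibition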
Sequence (P09769 2-529 limits assumed): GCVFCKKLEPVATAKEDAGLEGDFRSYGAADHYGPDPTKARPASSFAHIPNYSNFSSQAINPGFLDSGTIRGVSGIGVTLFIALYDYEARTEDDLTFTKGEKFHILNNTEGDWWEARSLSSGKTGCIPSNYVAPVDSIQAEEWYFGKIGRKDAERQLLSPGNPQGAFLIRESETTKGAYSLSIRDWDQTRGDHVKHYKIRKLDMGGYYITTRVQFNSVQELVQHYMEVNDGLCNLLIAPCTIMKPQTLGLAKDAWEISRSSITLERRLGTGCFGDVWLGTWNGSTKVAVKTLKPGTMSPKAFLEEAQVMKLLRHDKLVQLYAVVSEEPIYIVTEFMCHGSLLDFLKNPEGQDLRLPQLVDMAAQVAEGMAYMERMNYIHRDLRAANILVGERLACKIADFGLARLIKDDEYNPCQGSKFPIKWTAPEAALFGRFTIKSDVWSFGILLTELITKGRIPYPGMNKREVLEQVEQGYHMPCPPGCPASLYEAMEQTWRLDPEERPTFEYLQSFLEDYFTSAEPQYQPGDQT
run.conditions: at 1 µM
Criterion: inhibition meeting or surpassing 10%. Met: MET. Not met: NOT MET.

Look over these answered cases.
*Q* Hello, I need to know if `Cc1c2ccc(N(C)c3ccnc(Nc4cccc(S(N)(=O)=O)c4)n3)cc2nn1C` has measured inhibition not below 10%. Thanks!
*A* MET

*Q* Hello, I need to know if `COc1cc(N2CCN(C(C)C)CC2)ccc1Nc1nc(Nc2cccc3ncccc23)c2cc[nH]c2n1` has measured inhibition not below 10%. Thanks!
*A* NOT MET

*Q* Hello, I need to know if `COc1ccccc1-c1cc(/C=C2\C(=O)Nc3ncc(Br)cc32)cc(Br)c1O` has measured inhibition not below 10%. Thanks!
*A* MET

*Q* Hello, I need to know if `Cc1cc(O)cc(C)c1/C=C/c1cncc(C(=O)OC(C)(C)C)c1` has measured inhibition not below 10%. Thanks!
*A* MET

*Q* Hello, I need to know if `Cc1nnc(-c2cccc(-c3ccc(C(=O)NCC4CC4)cc3)c2)o1` has measured inhibition not below 10%. Thanks!
*A* NOT MET

*Q* Hello, I need to know if `CS(=O)(=O)CCNCc1ccc(-c2ccc3ncnc(Nc4ccc(OCc5cccc(C(F)(F)F)c5)cc4)c3c2)o1` has measured inhibition not below 10%. Thanks!
*A* NOT MET

*Q* Hello, I need to know if `NS(=O)(=O)c1cccc(N/C=C2\C(=O)Nc3ccccc32)c1` has measured inhibition not below 10%. Thanks!
*A* MET

*Q* Hello, I need to know if `COc1cccc(Nc2nccc(-c3cnn4ncccc34)n2)c1` has measured inhibition not below 10%. Thanks!
*A* MET

*Q* Hello, I need to know if `CN1CCC(n2cnc(-c3ccc(F)cc3)c2-c2ccnc(NCCO)n2)CC1` has measured inhibition not below 10%. Thanks!
*A* NOT MET

*Q* Hello, I need to know if `COc1ccc(-c2nn3ncccc3c2-c2ccnc(Nc3ccc(F)c(F)c3)n2)cc1` has measured inhibition not below 10%. Thanks!
*A* MET

---
*Q* Hello, I need to know if `CS(=O)(=O)Nc1ccc(-c2cc(-c3ccccc3)cc(C(N)=O)c2N)cc1` has measured inhibition not below 10%. Thanks!
*A* NOT MET

*Q* Hello, I need to know if `CNC(=O)c1cncc(/C=C/c2ccccc2C)c1` has measured inhibition not below 10%. Thanks!
*A* NOT MET

###

target: Inhibitor of nuclear factor kappa-B kinase subunit epsilon (Homo sapiens) (UniProt Q14164);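 note: mean inhibition of IKKε reported, from the GSK PKIS dataset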
Sequence (Q14164 whole entry): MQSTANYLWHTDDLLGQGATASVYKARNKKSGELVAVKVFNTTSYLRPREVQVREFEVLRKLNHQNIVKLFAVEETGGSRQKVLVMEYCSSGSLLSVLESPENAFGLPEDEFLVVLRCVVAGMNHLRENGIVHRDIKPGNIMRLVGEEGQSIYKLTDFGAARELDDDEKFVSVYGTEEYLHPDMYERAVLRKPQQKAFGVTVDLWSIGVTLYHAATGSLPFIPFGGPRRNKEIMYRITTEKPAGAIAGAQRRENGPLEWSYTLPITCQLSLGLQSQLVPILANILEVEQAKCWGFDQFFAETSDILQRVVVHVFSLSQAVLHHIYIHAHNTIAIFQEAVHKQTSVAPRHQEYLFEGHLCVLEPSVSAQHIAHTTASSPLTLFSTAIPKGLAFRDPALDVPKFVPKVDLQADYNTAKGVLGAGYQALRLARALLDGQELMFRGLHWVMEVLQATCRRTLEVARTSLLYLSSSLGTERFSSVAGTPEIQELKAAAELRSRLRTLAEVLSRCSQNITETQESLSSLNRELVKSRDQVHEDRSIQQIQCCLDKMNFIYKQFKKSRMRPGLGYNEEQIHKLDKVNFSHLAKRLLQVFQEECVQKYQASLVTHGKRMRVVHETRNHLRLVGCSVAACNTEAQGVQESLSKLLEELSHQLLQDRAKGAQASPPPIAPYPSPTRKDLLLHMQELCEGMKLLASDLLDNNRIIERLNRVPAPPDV
run.conditions: at 0.1 µM
Catalogue of compounds with associated inhibition
API: value field is a number in %; no unit string.

Short answer for `O=C1Nc2ccccc2/C1=C1\CCc2cc(O)ccc21` : inhibition was 6.27

Short answer for `CCS(=O)(=O)c1ccc(OC)c(Nc2ncc(-c3cccc(C(C)=O)c3)o2)c1` : inhibition was 6.89

Short answer for `FC(F)(F)CNc1nccc(-c2cnn3ncccc23)n1` : inhibition was 6.69

Short answer for CC1=C(C(=O)Nc2ccc3[nH]ncc3c2)C(c2ccc(F)cc2)N=C(c2ccc(C(F)(F)F)nc2)N1 (stereo not given) : inhibition was 2.04

Short answer for `CS(=O)(=O)CCNCc1ccc(-c2ccc3ncnc(Nc4ccc(OCc5ccccc5)cc4)c3c2)o1` : inhibition was 5.66

---
Short answer for `CS(=O)(=O)CCNCc1ccc(-c2ccc3ncnc(Nc4ccc(OCc5cccc(C(F)(F)F)c5)cc4)c3c2)o1` : inhibition was 4.74

Short answer for `CS(=O)(=O)Nc1ccc(-c2ccc3c(NC(=O)C4CC4)n[nH]c3c2)cc1` : inhibition was -0.23

Short answer for `COc1ccc2ncn(-c3cc(O[C@H](C)c4ccccc4C(F)(F)F)c(C(N)=O)s3)c2c1` : inhibition was -0.98

Short answer for `NS(=O)(=O)c1ccc(N/N=C2\C(=O)Nc3cccc(CCc4ccncc4)c32)cc1` : inhibition was -0.26

Short answer for `COc1ccc(Nc2ncc(-c3ccccc3)o2)cc1OC` : inhibition was 2.76

###

target: Sphingosine kinase 2 (Homo sapiens) (UniProt Q9NRA0)
Sequence (whole entry): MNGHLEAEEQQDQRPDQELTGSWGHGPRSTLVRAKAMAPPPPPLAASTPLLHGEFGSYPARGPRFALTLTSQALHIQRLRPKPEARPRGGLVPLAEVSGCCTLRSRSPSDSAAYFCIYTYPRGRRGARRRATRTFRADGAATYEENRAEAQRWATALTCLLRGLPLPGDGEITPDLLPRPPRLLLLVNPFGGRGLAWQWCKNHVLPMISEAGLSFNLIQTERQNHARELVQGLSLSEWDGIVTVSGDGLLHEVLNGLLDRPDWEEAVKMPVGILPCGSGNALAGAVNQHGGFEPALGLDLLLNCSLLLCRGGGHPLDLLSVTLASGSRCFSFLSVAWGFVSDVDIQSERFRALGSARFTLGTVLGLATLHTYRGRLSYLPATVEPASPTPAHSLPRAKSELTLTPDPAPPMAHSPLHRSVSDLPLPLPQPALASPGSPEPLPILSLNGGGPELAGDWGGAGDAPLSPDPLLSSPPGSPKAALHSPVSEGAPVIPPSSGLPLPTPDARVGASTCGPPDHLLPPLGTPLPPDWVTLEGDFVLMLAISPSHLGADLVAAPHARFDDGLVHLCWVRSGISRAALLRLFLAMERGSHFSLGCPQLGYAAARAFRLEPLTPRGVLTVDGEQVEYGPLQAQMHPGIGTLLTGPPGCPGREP
run.conditions: at 1 µM
Description: GSK_PKIS: SPHK2 mean inhibition at 1 uM [Nanosyn]
Catalogue of compounds with associated inhibition
API: value field is a number in %; no unit string.

Short answer for `CNC(=O)c1cncc(/C=C/c2ccccc2C)c1` : inhibition was 0

Short answer for `O=C(O[C@H]1CN[C@H](C#Cc2cc3ncnc(Nc4ccc5c(cnn5Cc5ccccc5)c4)c3s2)C1)N1CCOCC1` : inhibition was -0.03

Short answer for `COC(=O)Nc1nc2cc(Oc3ccc(NC(=O)Nc4ccccc4)cc3)ccc2[nH]1` : inhibition was 0.5

Short answer for `CCS(=O)(=O)c1ccc(OC)c(Nc2ncc(-c3cccc(C(C)=O)c3)o2)c1` : inhibition was 0.73

As a next step, examine the compound that follows.
Short answer for `Cc1nnc(-c2cccc(-c3ccc(C(=O)NCC4CC4)cc3)c2)o1` : inhibition was -1.45
